TEST TARGET: UniProt:P17252
Assay type: cell-based
TEST SETTINGS: sf9; note: in other assays of this panel Not Active means under 50% inhibition at 10 µM
PROPERTY NAME: IC50

[[record]]
compound = "CC[C@@H](CO)NC(=O)[C@@H]1C=C2c3cccc4c3c(cn4C)C[C@H]2N(C)C1 [METHYSERGIDE]"
value_observed = "Not Active"

[[record]]
compound = "C#C[C@]1(O)CC[C@H]2[C@@H]3CCc4cc(O)ccc4[C@H]3CC[C@@]21C"
value_observed = "Not Active"

[[record]]
compound = "COc1ccc(CN2CCNCC2)c(OC)c1OC"
value_observed = "Not Active"

[[record]]
compound = "Nn1nnc2ccccc21"
value_observed = "Not Active"

[[record]]
compound = "Nc1nc(Cl)nc2c1ncn2[C@H]1C[C@H](O)[C@@H](CO)O1"
value_observed = "Not Active"


GET /value?item= O=C(O)c1cccnc1 &field=IC50 returns Not Active

GET /value?item= CNS(=O)(=O)Cc1ccc2[nH]cc(CCN(C)C)c2c1 &field=IC50 returns Not Active

GET /value?item= Nc1nc(N)nc(NC2CC2)n1 &field=IC50 returns Not Active

GET /value?item= OCCO &field=IC50 returns Not Active

GET /value?item= OCCN1CCN(CCCN2c3ccccc3Sc3ccc(C(F)(F)F)cc32)CC1 &field=IC50 returns Not Active

###

Field: pIC50. Provide a value for each of the compounds that follow.
TEST TARGET: UniProtKB P50406
Sequence (P50406 whole entry): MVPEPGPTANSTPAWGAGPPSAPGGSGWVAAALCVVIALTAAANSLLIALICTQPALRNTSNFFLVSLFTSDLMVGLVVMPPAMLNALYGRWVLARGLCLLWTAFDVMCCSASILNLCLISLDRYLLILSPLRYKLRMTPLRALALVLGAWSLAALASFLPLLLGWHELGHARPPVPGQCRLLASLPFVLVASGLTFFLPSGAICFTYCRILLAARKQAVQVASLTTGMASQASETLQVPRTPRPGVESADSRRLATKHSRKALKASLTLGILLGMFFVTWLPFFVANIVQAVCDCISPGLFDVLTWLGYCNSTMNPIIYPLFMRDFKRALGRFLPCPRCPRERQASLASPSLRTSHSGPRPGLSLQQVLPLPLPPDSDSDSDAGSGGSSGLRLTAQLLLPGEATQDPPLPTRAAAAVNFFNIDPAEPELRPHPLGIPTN
Assay type: cell membranes, HeLa, Membrane
TEST SETTINGS: read-out: IC50
Here pIC50 is given on a logarithmic scale as minus log10 of the concentration in mol/L.

Item CC(C)C[C@H]1C(=O)N2CCC[C@H]2[C@]2(O)O[C@](NC(=O)[C@@H]3C=C4c5cccc6[nH]c(Br)c(c56)C[C@H]4N(C)C3)(C(C)C)C(=O)N12 [BROMOCRIPTINE] ; assay system UniProtKB P50406; pIC50 reported as 7.66

Item C=C(C)[C@H]1Cc2c(ccc3c2O[C@@H]2COc4cc(OC)c(OC)cc4[C@@H]2C3=O)O1 [ROTENONE] ; assay system UniProtKB P50406; pIC50 reported as 6.06

Item OCCN1CCN(CCCN2c3ccccc3Sc3ccc(C(F)(F)F)cc32)CC1 [FLUPHENAZINE] ; assay system UniProtKB P50406; pIC50 reported as 7.28

Item CC[C@@H](CO)NC(=O)[C@@H]1C=C2c3cccc4c3c(cn4C)C[C@H]2N(C)C1 [METHYSERGIDE] ; assay system UniProtKB P50406; pIC50 reported as 6.79

Item CN1C[C@H](C(=O)N[C@]2(C)O[C@@]3(O)[C@@H]4CCCN4C(=O)[C@H](Cc4ccccc4)N3C2=O)C[C@@H]2c3cccc4[nH]cc(c34)C[C@H]21 [DIHYDROERGOTAMINE] ; assay system UniProtKB P50406; pIC50 reported as 8.49

###

TEST TARGET: 5-hydroxytryptamine receptor 1B (Rattus norvegicus, UniProt P28564); note: in other assays of this panel Not Active means under 50% inhibition at 10 µM
Sequence (P28564 whole entry): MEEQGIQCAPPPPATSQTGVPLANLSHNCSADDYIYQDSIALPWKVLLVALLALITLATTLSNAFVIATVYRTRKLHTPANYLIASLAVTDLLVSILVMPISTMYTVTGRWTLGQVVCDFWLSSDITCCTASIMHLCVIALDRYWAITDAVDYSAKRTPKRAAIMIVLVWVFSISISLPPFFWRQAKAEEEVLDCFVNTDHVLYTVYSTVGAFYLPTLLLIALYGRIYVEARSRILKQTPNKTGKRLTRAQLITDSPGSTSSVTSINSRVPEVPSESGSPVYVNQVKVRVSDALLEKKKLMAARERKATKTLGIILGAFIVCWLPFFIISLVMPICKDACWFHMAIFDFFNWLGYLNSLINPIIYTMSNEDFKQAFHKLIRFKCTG
Format: cell membranes, Wistar, Cerebral cortex, Membrane
TEST SETTINGS: read-out: Ki
PROPERTY NAME: log10 Ki (log10 of the value in µM)
The common logarithm of Ki in µM is what is listed.

GET /value?item= CC(C)C[C@H]1C(=O)N2CCC[C@H]2[C@]2(O)O[C@](NC(=O)[C@@H]3C=C4c5cccc6[nH]c(Br)c(c56)C[C@H]4N(C)C3)(C(C)C)C(=O)N12 &field=log10 Ki returns -1.33

GET /value?item= O=c1n(CCCN2CCN(c3cccc(Cl)c3)CC2)nc2ccccn12 &field=log10 Ki returns -0.08

GET /value?item= CN1C[C@H](C(=O)N[C@]2(C)O[C@@]3(O)[C@@H]4CCCN4C(=O)[C@H](Cc4ccccc4)N3C2=O)C[C@@H]2c3cccc4[nH]cc(c34)C[C@H]21 [DIHYDROERGOTAMINE] &field=log10 Ki returns -3.42

GET /value?item= CC[C@@H](CO)NC(=O)[C@@H]1C=C2c3cccc4c3c(cn4C)C[C@H]2N(C)C1 [METHYSERGIDE] &field=log10 Ki returns -0.97

GET /value?item= OCCN1CCN(CCCN2c3ccccc3Sc3ccc(C(F)(F)F)cc32)CC1 &field=log10 Ki returns -0.06

Taken from ChEMBL document CHEMBL1909046.
